Each recorded value in this set is attributed to patent US6727246B2.

Measurement label: melting point

[[record]]
structure_as_smiles = "COc1ccc2c(c1)c(S(=O)(=O)c1ccccc1)cn2CCN(C)C"
measurement_label = "melting point"
reported = "214 to 216 °C"

[[record]]
structure_as_smiles = "CN(C)CCn1cc(S(=O)(=O)c2ccccc2)c2ccc(F)cc21"
measurement_label = "melting point"
reported = "100 to 102 °C"

[[record]]
structure_as_smiles = "CN(C)CCn1cc(S(=O)(=O)c2ccccc2)c2cc(C#N)ccc21"
measurement_label = "melting point"
reported = "280 °C (dec.)"

[[record]]
structure_as_smiles = "COc1ccc2c(S(=O)(=O)c3ccccc3)cn(CCN(C)C)c2c1"
measurement_label = "melting point"
reported = "121 to 122 °C"

[[record]]
structure_as_smiles = "COc1cccc2c(S(=O)(=O)c3ccccc3)cn(CCN(C)C)c12"
measurement_label = "melting point"
reported = "236 to 238 °C"

[[record]]
structure_as_smiles = "NCCn1cc(S(=O)(=O)c2ccccc2)c2ccc(Cl)cc21"
measurement_label = "melting point"
reported = "200 to 206 °C"

[[record]]
structure_as_smiles = "CN(C)CCn1cc(S(=O)(=O)c2ccccc2)c2cccc(C#N)c21"
measurement_label = "melting point"
reported = "134 to 136 °C"


---

# reported Ki; entries follow
target: human cloned 5-HT6 receptors (Homo sapiens); construct: expressed in transfected cells; host or cells: Hela cells (membrane preparation); assay: 5-HT6 binding affinity, [3H]-LSD displacement on membranes of Hela cells expressing the cloned receptor; details: [3H]-LSD 3.0 nM, Hela cell membranes, 120 min at room temperature; read-out: 5-HT6 Binding Ki
Sequence (P50406 whole entry): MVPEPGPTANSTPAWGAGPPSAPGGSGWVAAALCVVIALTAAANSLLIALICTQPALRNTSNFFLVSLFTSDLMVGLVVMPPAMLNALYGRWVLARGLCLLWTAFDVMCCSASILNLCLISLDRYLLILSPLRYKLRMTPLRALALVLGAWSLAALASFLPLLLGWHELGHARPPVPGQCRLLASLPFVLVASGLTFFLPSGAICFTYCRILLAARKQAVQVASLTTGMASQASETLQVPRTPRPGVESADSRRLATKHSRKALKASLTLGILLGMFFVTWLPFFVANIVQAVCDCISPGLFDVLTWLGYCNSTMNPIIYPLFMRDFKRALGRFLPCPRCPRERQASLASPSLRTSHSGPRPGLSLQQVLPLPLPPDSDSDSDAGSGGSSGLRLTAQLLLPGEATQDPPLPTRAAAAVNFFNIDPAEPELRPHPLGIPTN
Measurement label: Ki (nM)

[[record]]
structure_as_smiles = "O=S(=O)(Cc1ccccc1)c1cn(CCN2CCCCC2)c2ccccc12"
measurement_label = "Ki"
reported = 644

[[record]]
structure_as_smiles = "Cc1ccc(S(=O)(=O)c2cn(CCN)c3ccccc23)cc1"
measurement_label = "Ki"
reported = 25

[[record]]
structure_as_smiles = "Cn1ccnc1S(=O)(=O)c1cn(CCN)c2ccccc12"
measurement_label = "Ki"
reported = 573

[[record]]
structure_as_smiles = "CN(C)CCn1cc(S(=O)(=O)c2cccc3ccccc23)c2ccccc21"
measurement_label = "Ki"
reported = 4

[[record]]
structure_as_smiles = "Cc1ccc2c(S(=O)(=O)c3ccccc3)cn(CCN(C)C)c2c1"
measurement_label = "Ki"
reported = 51

[[record]]
structure_as_smiles = "NCCCn1cc(S(=O)(=O)c2ccccc2)c2ccccc21"
measurement_label = "Ki"
reported = 92

[[record]]
structure_as_smiles = "CN(C)CCn1cc(S(=O)(=O)c2ccccc2OC(F)(F)F)c2ccccc21"
measurement_label = "Ki"
reported = 16

[[record]]
structure_as_smiles = "CN(C)CCn1cc(S(=O)(=O)c2cccc(F)c2)c2ccccc21"
measurement_label = "Ki"
reported = 13

[[record]]
structure_as_smiles = "CN(C)CCn1cc(S(=O)(=O)c2c(Cl)nc3sccn23)c2ccccc21"
measurement_label = "Ki"
reported = 6

